Provenance of the data: PubChem BioAssay (NCI)

For each of the compounds below, state its TGI.
- Test system: U251 CNS
- experimental_protocol: NCI tumour cell line growth inhibition, 48 h

Example compounds with recorded TGI:
O=C(O)c1ccc([N+](=O)[O-])c2c(=O)c3ccccc3[nH]c12 = > 100 µM
CC1C=C(NCC2(CO)CCC2)NC(N)=N1 (stereo unspecified) = > 100 µM
CCCCN(CCCC)c1ccc(N=Nc2ccc(S(=O)(=O)O)cc2)cc1 = > 100 µM

Okay, here is my list. What is TGI for each of these?
1. CC1(C)N=C(N)N=C(N)N1c1ccc(CCCCc2ccc(Cl)cc2Cl)cc1
2. C=CCC1(O)c2cccc(O)c2C(=O)c2cccc(O)c21 (stereo unspecified)
3. N#Cc1nc(Cc2ccccc2)oc1N
4. NC(=O)C1=C(c2ccccc2)c2ccccc2C1=O
5. CCCC(=O)N[C@@H](Cc1cc(I)c(O)c(I)c1)C(=O)NCCCNCCCCNCCCNC(=O)[C@@H](N)CCCN=C(N)N
6. OCCCN(CCc1ccc(Cl)c(Cl)c1)CCN1CCCC1
7. CCCCCC(/C=N/NC(N)=S)C(O)(C(F)(F)F)C(F)(F)F (stereo unspecified)
8. CC(C)(C)C(=O)C(c1ccc(-c2cscn2)cc1)c1ccc(-c2cscn2)cc1

Response:
["15.2 µM", "45.5 µM", "> 100 µM", "35.1 µM", "> 100 µM", "> 100 µM", "> 10 µM", "> 60.8 µM"]

----------
- Tested on: EKVX NSCLC
- experimental_protocol: NCI tumour cell line growth inhibition, 48 h
observable: GI50

NC(=NC1CCCCCC1)c1ccc(N2CCN(c3ccc(C(N)=NC4CCCCCC4)cc3)CC2)cc1 = 1440 nM
N#CSCC1CC(O)(c2ccccc2)C(c2ccccc2)C(c2ccc(F)cc2)O1 (stereo unspecified) = 2460 nM
Cc1cc(N/N=C/c2nc(-c3ccccc3)oc2C)c2cc(Cl)ccc2n1 = 1990 nM
c1cncc(CNc2ccccc2-c2nnc(Nc3ccc4c(c3)OCCO4)o2)c1 = 609 nM
Cc1c(Cl)cccc1NC(=O)c1sc2nc3c(cc2c1N)CCCCCC3 = 234 nM
O=[N+]([O-])c1cc(Br)cc2c1[nH]c1ccc(Br)cc12 = 3190 nM
O=C(c1cc(-c2cc3c(cc2C(=O)N2Cc4ccccc4C[C@H]2CN2CCOCC2)OCO3)n2c1CCCC2)N(c1ccccc1)c1ccc(O)cc1 = 5310 nM
CN1CCN(Cc2ccc(NC(=O)c3[nH]ncc3Nc3ncnc4c3CCC4)cc2)CC1 = 2380 nM
CCCCC(=O)[O-].N.N.N.N.N.[Co+3].[O-][Cl+3]([O-])([O-])[O-] = > 100000 nM
Cc1nc(NC(=S)Nc2ccc(F)cc2)sc1C(=O)NNC(=S)Nc1ccc(F)cc1 = 4610 nM

Okay, here is my list. What is GI50 for each of these?
1. Cc1ccc(C(=O)N/N=C/c2cccc(Oc3ccccc3)c2)cn1
2. O=[N+]([O-])c1cccc2nc3ccccc3c(NCCNCCO)c12
3. Cc1ccc(NC2=C(Sc3ccc(Cl)cc3)C(=O)N(Cc3ccccc3)C2=O)cc1Cl
4. CCS(=O)(=O)c1ccc(OC)c(Nc2nccc(N(C)c3ccc4c(C)[nH]nc4c3)n2)c1
5. COc1ccc(/C=C(\C#N)c2cc(OC)c3c(c2)OCO3)cc1

Response:
1. 8360 nM
2. 30.6 nM
3. 26700 nM
4. 6850 nM
5. 1980 nM

Prompt: Any idea what GI50 was measured for Clc1cc(Cl)cc(N2N=C(c3cccc(Nc4ccncc4)c3)CC2c2ccc(Br)cc2)c1 (stereo unspecified) ?
Response: 1600 nM
